- Measurement conditions: in n-propanol, 323.15 K
Assay metric: solubility (mole fraction)
Reply: number alone, nothing else.

// query Return value of solubility (mole fraction) for input "O=C(O)[C@@H]1C[C@@H](O)CN1" , no commentary.
// result 0.000409

* * *

- Measurement conditions: in n-propanol, 283.15 K
Assay metric: solubility (mole fraction)
Reply: number alone, nothing else.

// query Return value of solubility (mole fraction) for input "O=C(O)[C@@H]1C[C@@H](O)CN1" , no commentary.
// result 6.6e-05

* * *

- Measurement conditions: in ethyl acetate, 308.15 K
Assay metric: solubility (mole fraction)
Reply: number alone, nothing else.

// query Return value of solubility (mole fraction) for input "O=C(O)[C@@H]1C[C@@H](O)CN1" , no commentary.
// result 0.00167
